System: T1, EsCas13d, nuclease-dead (Eubacterium siraeum, UniProt B0MS50, R295A;H300A;R849A;H854A)
T1 sequence: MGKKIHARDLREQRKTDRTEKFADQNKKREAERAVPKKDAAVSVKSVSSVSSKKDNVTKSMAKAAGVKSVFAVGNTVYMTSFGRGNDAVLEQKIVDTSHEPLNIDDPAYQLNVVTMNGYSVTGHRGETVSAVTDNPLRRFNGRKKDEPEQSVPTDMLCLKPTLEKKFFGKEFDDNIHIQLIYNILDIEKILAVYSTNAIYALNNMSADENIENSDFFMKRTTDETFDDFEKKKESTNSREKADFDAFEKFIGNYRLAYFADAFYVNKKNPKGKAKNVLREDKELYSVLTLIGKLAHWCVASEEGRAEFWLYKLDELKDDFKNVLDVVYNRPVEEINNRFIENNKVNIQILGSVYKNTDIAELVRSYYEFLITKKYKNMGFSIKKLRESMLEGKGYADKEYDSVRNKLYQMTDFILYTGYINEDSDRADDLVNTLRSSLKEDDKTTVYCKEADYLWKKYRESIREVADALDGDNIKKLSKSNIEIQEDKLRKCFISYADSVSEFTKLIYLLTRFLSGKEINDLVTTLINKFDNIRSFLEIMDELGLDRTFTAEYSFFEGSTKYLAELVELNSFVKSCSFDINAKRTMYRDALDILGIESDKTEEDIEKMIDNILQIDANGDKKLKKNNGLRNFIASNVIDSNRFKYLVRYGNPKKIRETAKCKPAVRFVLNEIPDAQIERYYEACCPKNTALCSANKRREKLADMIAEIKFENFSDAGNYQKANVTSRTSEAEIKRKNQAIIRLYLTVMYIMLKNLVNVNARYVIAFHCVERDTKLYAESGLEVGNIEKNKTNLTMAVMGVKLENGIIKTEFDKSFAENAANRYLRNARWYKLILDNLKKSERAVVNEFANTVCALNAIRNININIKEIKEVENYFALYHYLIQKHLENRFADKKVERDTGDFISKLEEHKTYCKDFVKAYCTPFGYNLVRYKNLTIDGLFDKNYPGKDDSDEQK
Experiment: crRNA (strand 1, pre-loaded); Mg2+; 40 mM Tris-HCl pH 7.5, 150 mM NaCl, 6 mM MgCl2, 1 mM DTT, 0.1% Tween-20, 0.2 mg/ml BSA; 25 C; 10 min per concentration, then washed
Run Conditions: tags: His6-TwinStrep-SUMO cleaved; N-terminal SNAP kept (SNAP-Surface 488); label: 3' end held by stalled T7 RNA polymerase
Observable: Kd (nM)

* target 1 C4A,A9G (mixed) RNA 1: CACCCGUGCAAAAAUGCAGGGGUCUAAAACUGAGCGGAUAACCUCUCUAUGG RNA 2: GGGAAUGGAUCCACAUCUACGAAUUCGUACCAUAGAGAGGUUGUCCGAUCACCGAGAUCGGAAGAGCACACGU | 3.18
* target 3 insU 3' of 11,insA 3' of 6 (mixed) RNA 1: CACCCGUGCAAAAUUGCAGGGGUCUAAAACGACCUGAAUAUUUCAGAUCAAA RNA 2: GGGAAUGGAUCCACAUCUACGAAUUCGUUUUUGAUCUGAAAUUAUUCAAGGUCUGCAGAUCGGAAGAGCACACGU | 63
* target 1 insG 3' of 6,insU 3' of 6 (mixed) RNA 1: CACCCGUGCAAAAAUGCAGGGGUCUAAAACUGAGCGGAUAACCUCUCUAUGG RNA 2: GGGAAUGGAUCCACAUCUACGAAUUCGUACCAUAGAGAGGUUAUCCGUGCUCACCGAGAUCGGAAGAGCACACGU | 9.9
* target 2 MT 5'PFS ACC 3'PFS CUA (mixed) RNA 1: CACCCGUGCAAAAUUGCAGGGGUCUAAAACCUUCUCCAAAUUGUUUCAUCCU RNA 2: GGGAAUGGAUCCACAUCUACGAAUUCACCAGGAUGAAACAAUUUGGAGAAGCUAAGAUCGGAAGAGCACACGU | 9.7

The values you see were collected from paper PMC10786891.
